Catalogue of % maximum possible antinociceptive effect at 10 mg/kg values
Test system: mouse
Experiment: In vivo studies of analgesia: tail-flick test in the mouse
Settings: iv, dose 10 mg/kg (i.v.), read-out: Activity % MPE
Description: In vivo Studies of Analgesia: Tail-flick Test in the Mouse The mice were each placed individually into a test cage and the base of the tail was exposed to the focused heat ray of an electric lamp (tail-flick type 50/08/1.bc, Labtec, Dr. Hess). The intensity of the lamp was adjusted so that the time from switching on of the lamp to the sudden twitching away of the tail (latency of pain) in untreated mice was from 3 to 5 seconds. […]
Structures can show the parent of a compound that is named as a salt.
Number only, in %; omit the unit.

Reference set, count: 3
Dear colleague, I am looking for the recorded % maximum possible antinociceptive effect at 10 mg/kg of the following molecule: CN(C)C(c1ccccc1)C1CCC(NC(=O)NC2CCCCC2)CC1 (stereo not shown)
59

Look up % maximum possible antinociceptive effect at 10 mg/kg: CN(C)C(c1ccccc1)[C@H]1CC[C@H](CCc2ccccc2)CC1 (relative stereo) [compound 146, hydrochloride]
21

GET /values?readout=% maximum possible antinociceptive effect at 10 mg/kg&item= CC(=O)N(CCCCc1ccccc1)C1CCC(C(c2ccccc2)N(C)C)CC1 (stereo not shown) [compound 98, hydrochloride]
100

Could you now look at the following molecule, please?
Would you mind telling me what % maximum possible antinociceptive effect at 10 mg/kg value was observed for CN(C)C(c1ccccc1)C1CCC(NC(=O)NCc2ccccc2)CC1 (stereo not shown) ?
76

* * *

biological target: human μ-opiate receptor (Homo sapiens, UniProt P35372); assay: Affinity for the human μ-opiate receptor ([3H]-naloxone displacement, SPA, CHO-K1 membrane preparation); format: binding; details: read-out: μ-Opioid receptor, Ki
Sequence (P35372 whole entry): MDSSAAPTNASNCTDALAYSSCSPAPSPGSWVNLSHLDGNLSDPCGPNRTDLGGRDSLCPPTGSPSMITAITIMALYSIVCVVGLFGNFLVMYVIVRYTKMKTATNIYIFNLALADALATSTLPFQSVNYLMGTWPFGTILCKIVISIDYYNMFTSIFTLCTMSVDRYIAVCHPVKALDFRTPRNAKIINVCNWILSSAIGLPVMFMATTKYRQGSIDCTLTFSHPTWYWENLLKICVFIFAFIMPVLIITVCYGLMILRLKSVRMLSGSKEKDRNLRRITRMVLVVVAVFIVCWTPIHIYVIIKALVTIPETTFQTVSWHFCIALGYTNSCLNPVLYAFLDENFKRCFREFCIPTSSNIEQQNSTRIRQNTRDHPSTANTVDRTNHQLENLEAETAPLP
This section presents molecules with their documented Ki values.
Hi, when you answer, please include the unit after the number. Thanks!

The examples below pair each entry with its known result.
Endpoint output: Ki of COc1cccc(C(=O)NC2CCC(C(c3cccs3)N(C)C)CC2)c1 (stereo not shown) . Value?
0.021 µM

Which Ki is listed for CN(C)C(c1ccccc1)C1CCC(NC(=O)Nc2ccc(Br)cc2)CC1 (stereo not shown) ?
0.033 µM

Fill blank: measured Ki of the molecule CN(C)C(c1cccc(F)c1)C1CCC(NC(=O)CC(C)(C)C)CC1 (stereo not shown) is ____.
0.091 µM

More entries:
What value of Ki has been recorded for this entry: CN(C)C(c1ccccc1)C1CCC(NC(=O)c2csc3ccccc23)CC1 (stereo not shown)
0.0039 µM

Dear colleague, I am looking for the recorded Ki of the following molecule: Cc1ccccc1C(=O)NCCC1CCC(C(c2ccc(Cl)cc2)N(C)C)CC1 (stereo not shown)
0.032 µM

Entry CN(C)C(c1cccs1)C1CCC(NC(=O)CC(C)(C)C)CC1 (stereo not shown) has what Ki?
0.029 µM

Recorded Ki for CCOC(=O)CC1CCC(C(c2cccc(F)c2)N(C)C)CC1 (stereo not shown) , please?
0.23 µM

Which value of Ki has been reported for Cc1ccccc1C(=O)NCC1CCC(C(c2ccccc2)N(C)C)CC1 (single isomer, unassigned) [compound 317] in the records?
0.029 µM

I would be grateful if you could share the reported Ki for CN(C)C(c1ccccc1)C1CCC(CCNC(=O)c2ccc(F)c(F)c2)CC1 (stereo not shown) .
0.011 µM

So what does the record say about Ki for Cc1ccc(C(=O)NC2CCC(C(c3ccccc3)N(C)C)CC2)cc1 (stereo not shown) ?
0.046 µM

For COc1cccc(CC(=O)NCC2CCC(C(c3ccc(Cl)cc3)N(C)C)CC2)c1 (stereo not shown) , what is its reported Ki?
0.028 µM

* * *

Listed below: inhibition at 1 µM values for each entry.
molecular target: human μ-opiate receptor (Homo sapiens); assay: Affinity for the human μ-opiate receptor ([3H]-naloxone displacement, SPA, CHO-K1 membrane preparation); format: binding; details: read-out: μ-Opioid receptor, % inhibition [1 μM]
Structures can show the parent of a compound that is named as a salt.
Answer with a number only, understood to be in %.

Please report the recorded inhibition at 1 µM for CN(C)C(c1cccs1)C1CCC(CNC(=O)c2ccccc2Br)CC1 (centres unmarked) .
100

Sample CCC(CC)C(=O)N(Cc1ccccc1)C1CCC(C(c2ccccc2)N(C)C)CC1 (centres unmarked) [compound 101, hydrochloride] — what was its inhibition at 1 µM?
101

So what's the measured inhibition at 1 µM for this one? CN(C)C(c1ccc(Cl)cc1)C1CCC(CCNC(=O)c2cccnc2Cl)CC1 (centres unmarked)
83

Item under review: CN(C)C(c1ccccc1)C1CCC(CNC(=O)c2csc3ccccc23)CC1 (centres unmarked) . Reported inhibition at 1 µM?
102

Entry CN(C)C(c1cccs1)C1CCC(CCNC(=O)c2csc3ccccc23)CC1 (centres unmarked) : reported inhibition at 1 µM = ?
99

Reported inhibition at 1 µM, molecule CC(=O)N(Cc1ccccc1)C1CCC(C(c2ccccc2)N(C)C)CC1 (centres unmarked) [compound 100, hydrochloride] : ____
100

Quick check: inhibition at 1 µM of CN(C)C(c1cccc(F)c1)C1CCC(CNC(=O)Cc2ccccc2)CC1 (single isomer, unassigned) ?
95

Requested read-out: inhibition at 1 µM. Entry: CCCC(=O)N(c1ccccc1)C1CCC(C(c2ccccc2)N(C)C)CC1 (centres unmarked)
90

Fill in: inhibition at 1 µM of Cc1nc(-c2ccccc2)sc1C(=O)NC1CCC(C(c2ccccc2)N(C)C)CC1 (centres unmarked) is ___
83

For the molecule shown here, CN(C)C(c1ccccc1)C1CCC(CCNC(=O)c2cc3ccccc3s2)CC1 (centres unmarked) , give the reported inhibition at 1 µM.
91

What does the data say about its inhibition at 1 µM? Entry: CN(C)C(c1ccccc1)C1CCC(CNC(=O)c2cc([N+](=O)[O-])cc([N+](=O)[O-])c2)CC1 (centres unmarked)
80

Param item = CN(C)C(c1ccccc1)C1CCC(CCNC(=O)c2ccc(C#N)cc2)CC1 (centres unmarked) ; retrieve measured inhibition at 1 µM.
80

Looking for the measured inhibition at 1 µM of CN(C)C(c1ccccc1)C1CCC(CNC(=O)c2cccnc2Cl)CC1 (centres unmarked) , can you help?
86

State the recorded inhibition at 1 µM for this entry: CN(C)C(c1ccccc1)C1CCC(NC(=O)c2c(F)ccc(F)c2F)CC1 (centres unmarked)
82

* * *

target: human μ-opiate receptor (Homo sapiens); experiment: Affinity for the human μ-opiate receptor ([3H]-naloxone displacement, SPA, CHO-K1 membrane preparation); assay type: binding; settings: read-out: μ-Opioid receptor, % inhibition [1 μM]
Reported property: inhibition at 1 µM (%)
Just the number in %, nothing appended.

Please give the measured inhibition at 1 µM for this compound: Cc1oc(-c2ccc(Cl)cc2)cc1C(=O)NC1CCC(C(c2ccccc2)N(C)C)CC1 (stereo not shown) [compound 232]
84

# query: inhibition at 1 µM of entry COc1cccc(CC(=O)NCC2CCC(C(c3ccccc3)N(C)C)CC2)c1 (stereo not shown) [compound 349]
89

More entries:
What value of measured inhibition at 1 µM is listed for CN(C)C(c1cccs1)C1CCC(CCNC(=O)c2ccc(F)c(F)c2)CC1 (stereo not shown) [compound 446] ?
99

Returns the measured inhibition at 1 µM for the input compound. Input: Cc1ccc(Oc2ncccc2C(=O)NCC2CCC(C(c3cccc(F)c3)N(C)C)CC2)cc1 (stereo not shown) [compound 337]
92

* * *

molecular target: human μ-opiate receptor (Homo sapiens); test: Affinity for the human μ-opiate receptor ([3H]-naloxone displacement, SPA, CHO-K1 membrane preparation); assay type: binding; details: read-out: μ-Opioid receptor, % inhibition [1 μM]
Reported property: inhibition at 1 µM (%)
Field format: number, assumed %, no unit text.

Example entries begin here.
Recorded inhibition at 1 µM for CN(C)C(c1ccccc1)C1CCC(NC(=O)c2scc(S(C)(=O)=O)c2Cl)CC1 (stereo not drawn) [compound 252] , please?
81

Given the compound COc1ccccc1C(=O)NC1CCC(C(c2cccs2)N(C)C)CC1 (stereo not drawn) [compound 207] , what is its reported inhibition at 1 µM?
92

So what does the record say about inhibition at 1 µM for CN(C)C(c1ccc(Cl)cc1)C1CCC(CCNC(=O)c2cc(F)cc(F)c2)CC1 (stereo not drawn) [compound 434] ?
85

Dear colleague, I am looking for the recorded inhibition at 1 µM of the following compound: CN(C)C(c1cccc(F)c1)C1CCC(CCNC(=O)c2ccccc2Cl)CC1 (stereo not drawn) [compound 404]
97

# inhibition at 1 µM lookup, item CCSc1ncccc1C(=O)NCC1CCC(C(c2cccc(F)c2)N(C)C)CC1 (stereo not drawn) [compound 388]
81

Further cases:
Given the entry COc1c(C(=O)NC2CCC(C(c3cccs3)N(C)C)CC2)csc1Cl (stereo not drawn) [compound 195] , report its measured inhibition at 1 µM.
96

Please report the recorded inhibition at 1 µM for COc1ccccc1C(=O)NCCC1CCC(C(c2ccc(F)cc2)N(C)C)CC1 (stereo not drawn) [compound 432] .
95

# query: inhibition at 1 µM of entry Cc1ccc(Oc2ncccc2C(=O)NC2CCC(C(c3cccs3)N(C)C)CC2)cc1 (stereo not drawn) [compound 220]
88

Given the entry CC(Oc1ccccc1)C(=O)NCC1CCC(C(c2ccccc2)N(C)C)CC1 (stereo not drawn) [compound 323] , report its measured inhibition at 1 µM.
95

Suppose we examine the compound CN(C)C(c1ccccc1)C1CCC(NC(=O)c2ccc(Cl)c(Cl)c2)CC1 (stereo not drawn) [compound 189] ; what inhibition at 1 µM value has been reported?
99

Looking for the measured inhibition at 1 µM of CN(C)C(c1cccs1)C1CCC(CNC(=O)c2cccc(Br)c2)CC1 (stereo not drawn) [compound 307] , can you help?
98

Any idea what its inhibition at 1 µM is? The compound is COc1ccccc1C(=O)NCC1CCC(C(c2cccc(F)c2)N(C)C)CC1 (stereo not drawn) [compound 368]
84

Would you kindly share the measured inhibition at 1 µM for CN(C)C(c1cccc(F)c1)C1CCC(NC(=O)c2ccc(-c3ccccn3)s2)CC1 (stereo not drawn) [compound 267] ?
77

Reported inhibition at 1 µM for COc1ccc(C(=O)NCCC2CCC(C(c3ccccc3)N(C)C)CC2)c(OC)c1 (stereo not drawn) [compound 478] : what is it?
95

Given the compound CN(C)C(c1ccc(Cl)cc1)C1CCC(CNC(=O)CC(C)(C)C)CC1 (stereo not drawn) [compound 309] , what is its reported inhibition at 1 µM?
98

Find the recorded inhibition at 1 µM belonging to Cc1cccc(C(=O)NCCC2CCC(C(c3ccc(F)cc3)N(C)C)CC2)c1 (stereo not drawn) [compound 429] and report it.
88

I am curious: what inhibition at 1 µM value has been reported for CN(C)C(c1cccc(F)c1)C1CCC(NC(=O)c2cc(F)cc(F)c2)CC1 (stereo not drawn) [compound 204] ?
94

Name the reported inhibition at 1 µM value associated with the compound COc1ccccc1C(=O)NCC1CCC(C(c2cccs2)N(C)C)CC1 (stereo not drawn) [compound 305]
98
